Tested on: Mycobacterium tuberculosis
Test: Antimycobacterial activity against Mycobacterium tuberculosis H37Rv after 21 days by broth dilution assay
Assay type: functional
Conditions: 504 h
Entries and their MIC
Respond numerically; units are µg/mL and should not be typed.

COc1ccc(/C=N/n2c(-c3nc(C(C)C)cs3)nn(CN3CCN(C)CC3)c2=S)cc1 = 16
CC(C)c1csc(-c2nnc3n2NC(c2ccc([N+](=O)[O-])cc2)S3)n1 (configuration not stated) = 62.5
Cc1ccc(C2=Nn3c(nnc3-c3nc(C(C)C)cs3)SC2)cc1 = 16
CC(C)c1csc(-c2nnc3n2NC(c2ccc(O)cc2)S3)n1 (configuration not stated) = 125
Cc1ccc(C(=O)Nn2c(-c3nc(C(C)C)cs3)n[nH]c2=S)cc1 = 31.2

Requested read-out: MIC. Entry: CC(C)c1csc(-c2nn(CN3CCOCC3)c(=S)n2/N=C/c2ccc(N(C)C)cc2)n1
16

Request the reported MIC associated with CC(C)c1csc(-c2nnc3sc(S)nn23)n1
31.2
